- System: HFF
- applied conditions: HSV-1 assay
property: CC50

Give recorded CC50. Cc1nc(Nc2ccc(NC(=O)c3ccco3)cc2)cc(N2CCCC2)n1 [MBX-4992]
60.6 µM

====

- Tested on: EBV Akata
- measurement protocol: Herpes virus panel, EBV qPCR
- Type: cell-based, Epstein-Barr virus
- applied conditions: Akata cells
property: pIC50
Remember, pIC50 is on a log scale: it is -log10 of the molar concentration.

Name the recorded pIC50 of the molecule listed here: Cc1nc(Nc2ccc(NC(=O)c3ccco3)cc2)cc(N2CCCC2)n1
4.51

====

- Test system: HFF
- applied conditions: HSV-2 assay
property: CC50

Using the record for Cc1nc(Nc2ccc(NC(=O)c3ccco3)cc2)cc(N2CCCC2)n1 , state its measured CC50.
> 150 µM

====

- Tested on: HFF
- applied conditions: VZV assay
property: CC50
Hi, when you answer, please include the unit after the number. Thanks!

State its CC50 for this compound: Cc1nc(Nc2ccc(NC(=O)c3ccco3)cc2)cc(N2CCCC2)n1
139 µM

====

- System: GP Lung
- applied conditions: GP Lung cells, GpCMV assay
property: CC50 (µM)
Give just the numeric value; µM need not be written.

State its CC50: Cc1nc(Nc2ccc(NC(=O)c3ccco3)cc2)cc(N2CCCC2)n1
119

From: paper PMC9907720
